Below, each of the compounds is paired with its reported log10(Ki) value.
# target or system: A1 receptor (Mesocricetus auratus)
# Construct: endogenous in cells
# Sequence (A0A1U8BVR4 1-326): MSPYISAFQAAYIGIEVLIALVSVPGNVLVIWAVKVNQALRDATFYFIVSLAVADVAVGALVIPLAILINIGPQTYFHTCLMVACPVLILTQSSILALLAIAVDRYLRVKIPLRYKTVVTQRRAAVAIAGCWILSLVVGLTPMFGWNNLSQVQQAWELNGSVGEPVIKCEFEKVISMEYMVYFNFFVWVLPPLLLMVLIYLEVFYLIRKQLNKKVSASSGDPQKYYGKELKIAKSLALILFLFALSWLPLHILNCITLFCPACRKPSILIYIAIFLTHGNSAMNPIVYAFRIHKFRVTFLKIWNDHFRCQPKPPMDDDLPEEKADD
# protocol notes: Competitive binding assay, DDT1 cell membranes, [3H]CCPA
# assay context: DDT1 membrane prep, agonist [3H]CCPA 2 nM, 23 C, 2 h
Hi team, quick reminder: these entries are log10 of Ki (µM).

Example entries and their recorded answers appear below.
>>> print(df.to_string())
                           molecular_string  result_type  reported_value
0  COc1ccc(SC[C@H]2O[C@@H](n3cnc4c(N[C@@H]5CCOC5)ncnc43)[C@H](O)[C@@H]2O)cc1    log10(Ki)           -0.09
1  COc1ccccc1SC[C@H]1O[C@@H](n2cnc3c(N[C@@H]4CCOC4)ncnc32)[C@H](O)[C@@H]1O    log10(Ki)           -0.02

Query block: I am curious: what log10(Ki) value has been reported for Cc1ccc(SC[C@H]2O[C@@H](n3cnc4c(N[C@@H]5CCOC5)ncnc43)[C@H](O)[C@@H]2O)cc1 ?
Result block: -0.04

Query block: Subsequent entry: O[C@@H]1[C@H](O)[C@@H](CSc2ccc(F)cc2)O[C@H]1n1cnc2c(N[C@@H]3CCOC3)ncnc21
Result block: -0.44

Query block: Try O[C@@H]1[C@H](O)[C@@H](CSc2ccc(C(F)(F)F)cc2)O[C@H]1n1cnc2c(N[C@@H]3CCOC3)ncnc21 next.
Result block: 0.89

====

# target or system: A1 AdoR (Mesocricetus auratus, UniProt A0A1U8BVR4)
# Construct: endogenous in cells; host or cells: DDT1 cells (hamster vas deferens smooth muscle cell line): membranes in A1 and A3, whole cells in A4
# Sequence (A0A1U8BVR4 1-326): as above
# protocol notes: [35S]GTPγS binding assay (A1-agonist stimulated), DDT1 membranes
# Type: biochemical, hamster
# assay context: stimulated [35S]GTPγS binding normalized to the full agonist CPA
result type: GTP[…]S (%)
Kindly provide the numeric value in % only, without the unit symbol.

Query block: Entry CCSC[C@H]1O[C@@H](n2cnc3c(N[C@@H]4CCOC4)ncnc32)[C@H](O)[C@@H]1O : reported GTP[…]S = ?
Result block: 104

Query block: Moving on to the next compound: Cc1ccc(SC[C@H]2O[C@@H](n3cnc4c(N[C@@H]5CCOC5)ncnc43)[C@H](O)[C@@H]2O)cc1
Result block: 48

Query block: Continue with O[C@@H]1[C@H](O)[C@@H](CSc2ccc(C(F)(F)F)cc2)O[C@H]1n1cnc2c(N[C@@H]3CCOC3)ncnc21
Result block: 31

Query block: Okay, and COc1ccccc1SC[C@H]1O[C@@H](n2cnc3c(N[C@@H]4CCOC4)ncnc32)[C@H](O)[C@@H]1O ?
Result block: 52

Query block: Same for COc1ccc(SC[C@H]2O[C@@H](n3cnc4c(N[C@@H]5CCOC5)ncnc43)[C@H](O)[C@@H]2O)cc1
Result block: 52

Query block: Another compound to check: O[C@@H]1[C@H](O)[C@@H](CSc2ccc(F)cc2)O[C@H]1n1cnc2c(N[C@@H]3CCOC3)ncnc21
Result block: 61

Query block: Okay, and O[C@@H]1[C@H](O)[C@@H](CSc2ccc(Cl)cc2)O[C@H]1n1cnc2c(N[C@@H]3CCOC3)ncnc21 ?
Result block: 69

====

Protein target, amino acids: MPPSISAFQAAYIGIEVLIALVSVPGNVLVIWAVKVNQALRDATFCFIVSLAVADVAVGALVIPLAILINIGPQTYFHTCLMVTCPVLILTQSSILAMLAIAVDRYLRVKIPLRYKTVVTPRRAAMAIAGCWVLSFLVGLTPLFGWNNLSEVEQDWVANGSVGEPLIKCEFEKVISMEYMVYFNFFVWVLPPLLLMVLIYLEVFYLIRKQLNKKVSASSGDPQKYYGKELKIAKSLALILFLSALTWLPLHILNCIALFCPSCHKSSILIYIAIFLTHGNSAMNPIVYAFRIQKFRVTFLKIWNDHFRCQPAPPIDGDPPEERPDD
result type: Ki (nM)
# unit: nM | format: bare number

Query block: Given CC(C)SC[C@H]1O[C@@H](n2cnc3c(N[C@@H]4CCOC4)ncnc32)[C@H](O)[C@@H]1O , state its recorded Ki.
Result block: 188

Source listed as patent US20050054605A1.
